From: PubChem BioAssay (NCATS)

TEST DETAILS: Quantitative High-Throughput drug screen in 47 multiple myeloma cell lines against the NCATS MIPE library collection: L363_DSMZ cell viability assay (AID 1918984); further: nearly all actives have a fitted effect of over 40% in size
CONDITION NOTES: L363 myeloma viability, CellTiter-Glo ATP luminescence, 48 h; series mostly up to 45.8 µM
Records with an inconclusive call do not appear. The source made the active and inactive calls. The call rests on the fitted dose curve; in most records, active means well fitted cell-killing curve with a large enough effect; inconclusive means small, poorly fitted or top-dose-only effect, or effect the other way; inactive means no such curve, though single readings can be large or run the other way.
Choose the fitting class; nothing outside YES for active, NO for inactive is accepted.

Outcome logged for `c1cc(N[C@@H]2CCNC2)nc(-c2cnc3ccc(-c4cn[nH]c4)cn23)c1` in this assay: YES

Identify the outcome logged in this assay for the molecule shown: `Nc1nc(N)c2nc(-c3cccc(O)c3)c(-c3cccc(O)c3)nc2n1` YES

----------
System: Zika virus NS2B-NS3 protease (unlinked complex)
TEST DETAILS: Primary screen GU Rhodamine qHTS for Zika virus inhibitors: Unlinked NS2B-NS3 protease assay (AID 1347159); further: nearly all actives have a fitted effect of over 60% in size
CONDITION NOTES: Recombinant ZIKV NS2B-NS3 protease, Rhodamine110 substrate fluorescence; series mostly up to 107 µM
Records with an inconclusive call do not appear. Activity calls are given as the source filed them. Calls come from the whole dose curve; as a rule, active = well fitted inhibition curve with a large enough effect; inconclusive = small, poorly fitted or top-dose-only effect; inactive = no such curve, though single readings can be large or run the other way.
Hello, when you answer, please use one of the following outcomes: True for active, False for inactive

I would be grateful if you could indicate the recorded call for `CS(=O)(=O)N1CCc2c(-c3cnc(N)nc3)nc(N3CCOCC3)nc21` . False

Next:
For `N#Cc1c(C2CCNCC2)cc(-c2c(O)cccc2OCC2CC2)nc1N` , which call appears in the assay record? False

Recorded test call requested for `Cn1cnc2c(F)c(Nc3ccc(Br)cc3F)c(C(=O)NOCCO)cc21` False

Identify the outcome logged in this assay for the molecule shown: `O=C(O)c1ccc(Nc2ncc3c(n2)-c2ccc(Cl)cc2C(c2c(F)cccc2F)=NC3)cc1` True

Please share the test call associated with `O=C(Nc1cc2cc[nH]c2cn1)c1ccccc1` . False

----------
TEST DETAILS: Quantitative High-Throughput drug screen in 47 multiple myeloma cell lines against the NCATS MIPE library collection: PCM6_Riken cell viability assay (AID 1919870); further: nearly all actives have a fitted effect of over 30% in size
CONDITION NOTES: CellTiter-Glo ATP, 48 h; series mostly up to 45.8 µM
Results filed as inconclusive are left out. Activity calls are given as the source filed them. Calls follow the shape of the dose curve; as a rule, active = well fitted cell-killing curve with a large enough effect; inconclusive = small, poorly fitted or top-dose-only effect, or effect the other way; inactive = no such curve, though single readings can be large or run the other way. Starred links: 1 amine or outer side, 2 acyl side, 3 side chain; linkers in the order of their positions; H or OH if unused. Positions of bridges follow the written chain, without caps; N, C: chain ends. Non-standard residues stand in square brackets, D forms with d. Residues, ends and D or L forms follow the SMILES beside them. Chains are numbered I, II in the order given. Actinocin(9to1) = Cc1c2oc3c(C)ccc(C(=O)[*:1])c3nc-2c(C(=O)[*:2])c(N)c1=O; NMeV = CN[CH](C(=O)O)C(C)C; Sar = CNCC(=O)O
Outcomes you can answer with include only these: active, inactive

So what was the verdict on Cc1c2oc3c(C)ccc(C(=O)NC4C(=O)NC(C(C)C)C(=O)N5CCCC5C(=O)N(C)CC(=O)N(C)C(C(C)C)C(=O)OC4C)c3nc-2c(C(=O)NC2C(=O)NC(C(C)C)C(=O)N3CCCC3C(=O)N(C)CC(=O)N(C)C(C(C)C)C(=O)OC2C)c(N)c1=O (stereo unspecified) (I: TVP[Sar][NMeV] / II: TVP[Sar][NMeV]; ester I:1-I:C, II:1-II:C; linker I:N-II:N via Actinocin(9to1); configuration not given here) in this test? inactive

Could you check what this test reported for `C=C(C)[C@@H]1CC[C@]2(C)CC[C@]3(C)[C@H](CC[C@@H]4[C@@]5(C)CC[C@H](O)C(C)(C)[C@H]5CC[C@]43C)[C@@H]12` ? inactive

Which outcome did this test record for the compound `COc1cc(N2CCC(C(N)=O)CC2)ccc1Nc1nc(N)c(Cl)c(Nc2ccccc2S(=O)(=O)C(C)C)n1` ? active

Next:
For `CNC(=O)c1cccc(-c2ccc3c(N4CCOC[C@H]4C)nc(N4CCOC[C@H]4C)nc3n2)c1` , what call appears in the results of this test? active

Short answer needed: outcome of this test for CC(=O)C1=C(O)C=C2Oc3c(C(C)=O)c(O)c(C)c(O)c3C2(C)C1=O (stereo unspecified) ? inactive
